Test: qHTS assay to identify small molecule agonists of the estrogen receptor beta (ER-beta) signaling pathway - cell viability counter screen (AID 1259380); note: % is set by controls: 0 for no effect and ±100 for the full control effect; nearly all actives have a fitted effect of over 30% in size
Settings: ER-beta-bla HEK293T viability, CellTiter-Glo luminescence, 16 h; series mostly up to 92.4 µM
Results filed as inconclusive are left out. Active and inactive are the calls of the source. Calls come from the whole dose curve; as a rule, active = well fitted cell-killing curve with a large enough effect in the repeat runs; inconclusive = weak or mixed curves, or effect the other way; inactive = flat fitted curve, though single readings scatter.
endpoint: outcome

Below, 4 compounds whose answers are already recorded.
> print(dat)
              substance.smiles  data.value
1  CCCC(CCC)(C(=O)OCC)C(=O)OCC    inactive
2           NCCCN1CCN(CCCN)CC1    inactive
3               O=C1C=CC(=O)O1    inactive
4                     C=CCCC=C    inactive

The reported outcome of the compound `Cc1ccsc1C(=CCCN1CCC[C@@H](C(=O)O)C1)c1sccc1C` was inactive

The reported outcome of the compound `O=c1[nH]c(=O)n([C@H]2C[C@H](O)[C@@H](CO)O2)cc1C(F)(F)F` was inactive

---

Assay: qHTS assay to test for compound auto fluorescence at 460 nm (blue) in HepG2 cell free culture (AID 720685); note: % is set by controls: 0 for no effect and ±100 for the full control effect
Details: Cell-free culture medium, blue autofluorescence 405/460 nm; series mostly up to 91.3 µM
The source made the active and inactive calls. Calls come from the whole dose curve; as a rule, active = well fitted curve in the direction sought with a large enough effect in the repeat runs; inconclusive = weak or mixed curves; inactive = flat fitted curve, though single readings scatter.
endpoint: fluorescence, % of fluorescent control

Below, 4 compounds whose answers are already recorded.
> print(dat)
                    substance.smiles                                endpoint                        data.value
1                        ICCc1ccccc1  fluorescence, % of fluorescent control                          inactive
2         Cc1ccc([N+](=O)[O-])c(N)c1  fluorescence, % of fluorescent control                          inactive
3  CC(=O)Oc1cc(C(C)C)c(OCCN(C)C)cc1C  fluorescence, % of fluorescent control  -0.0726% [at 18.6 µM] (inactive)
4         CCCCCCCCCCCCOCCOS(=O)(=O)O  fluorescence, % of fluorescent control                          inactive

Okay, now this compound:
The reported fluorescence, % of fluorescent control of the compound `CCC/C=C/CO` was inactive

---

Assay: A CellTox Green Cytotoxicity Assay to monitor cytotoxicity in HEK293 cells - 24 hour (AID 1224875); note: nearly all actives have a fitted effect of over 45% in size; note: potency is the fitted concentration of half-maximal effect
Conditions: CellTox Green fluorescence; series mostly up to 76.8 µM
Excerpt: National Center for Advancing Translational Sciences [NCATS] NIH Chemical Genomics Center [NCGC] U.S. Environmental Protection Agency [EPA] National Institutes of Environmental Health Sciences [NIEHS] National Toxicology Program [NTP] Cell-based models are critical for drug discovery. […] Viable cells produce no appreciable increases in fluorescence. Therefore, the fluorescence signal produced by the binding interaction with dead cell DNA is proportional to cytotoxicity. […]
Results filed as inconclusive are left out. Active and inactive are the calls of the source. Calls follow the shape of the dose curve; as a rule, active = well fitted activation curve with a large enough effect in the repeat runs; inconclusive = weak or mixed curves; inactive = flat fitted curve, though single readings scatter.
endpoint: Potency

> print(dat)
                           substance.smiles  endpoint      data.value
1                        CCCCCCOc1ccc(N)cc1   Potency  49 µM (active)
2                               CC(C)OC(C)C   Potency        inactive
3  Cc1cn([C@@H]2O[C@H](CO)[C@@H](O)[C@@H]2F)c(=O)[nH]c1=O   Potency        inactive
4                Cc1ccc([N+](=O)[O-])c(N)c1   Potency        inactive
5      CCCCOc1cc(C(=O)NCCN(CC)CC)c2ccccc2n1   Potency        inactive

The reported Potency of the compound `CCN[C@H]1CN(CCCOC)S(=O)(=O)c2sc(S(N)(=O)=O)cc21` was inactive

The reported Potency of the compound `CC/C=C\CCOC(=O)CCCCC` was inactive

The reported Potency of the compound `C[C@]12C(=O)OC(=O)[C@H]1[C@H]1C=C[C@@H]2C1` was inactive

The reported Potency of the compound `OCCN(CCO)CCN(CCO)CCO` was inactive

The reported Potency of the compound `CCCCc1ccc2nc(NC(=O)OC)[nH]c2c1` was inactive

The reported Potency of the compound `CCCCN1C[C@H](O)[C@@H](O)[C@H](O)[C@H]1CO` was inactive
